experiment.summary: in vivo
measurement.conditions: male, Sprague-Dawley, rat, oral
measured.quantity: MTD at 2 weeks (mg/kg)

compound | measured.quantity | experimental.value
Cc1ccc(C2=CC(C)(C)Oc3ccc(-c4ccc(-c5ccc(C(=O)[O-])cc5)[nH]4)cc32)cc1.[Na+] [Example 1] | MTD at 2 weeks | 50

---

experiment.summary: in vitro
measurement.conditions: human, pooled liver microsomes
measured.quantity: half-life (h)

compound | experimental.value
Cc1ccc(C2=CC(C)(C)Oc3ccc(-c4ccc(-c5ccc(C(=O)[O-])cc5)[nH]4)cc32)cc1.[Na+] [Example 1] | 9.5

---

tested.target: RARα (Homo sapiens, UniProt P10276)
Construct: host or cells: unnamed reporter cells
Sequence (P10276 whole entry, species assumed): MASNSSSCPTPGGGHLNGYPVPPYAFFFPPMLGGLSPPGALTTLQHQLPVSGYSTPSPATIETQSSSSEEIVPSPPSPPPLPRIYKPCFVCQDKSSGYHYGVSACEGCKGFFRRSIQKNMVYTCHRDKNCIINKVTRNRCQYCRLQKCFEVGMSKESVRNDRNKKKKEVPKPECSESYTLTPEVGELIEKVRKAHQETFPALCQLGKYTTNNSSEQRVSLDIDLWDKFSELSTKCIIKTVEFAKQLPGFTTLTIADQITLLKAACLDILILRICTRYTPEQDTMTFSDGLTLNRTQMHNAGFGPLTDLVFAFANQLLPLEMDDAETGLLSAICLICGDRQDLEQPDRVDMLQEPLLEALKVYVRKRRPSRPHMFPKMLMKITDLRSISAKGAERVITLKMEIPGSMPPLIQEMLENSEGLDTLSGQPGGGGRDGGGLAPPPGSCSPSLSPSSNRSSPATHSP
experiment.summary: Transactivation (luciferase) antagonist assay, RARα
Type: cell-based
measurement.conditions: vs EC80 (180 nM) 9-cis-RA, luciferase readout; read-out: RARα Antagonism IC50
Documented IC50 across a set of compounds

record.smiles | tested.target | IC50, µM
Cc1ccc(C2=CC(C)(C)Oc3ccc(-c4ccc(-c5ccc(C(=O)O)c(F)c5)[nH]4)cc32)cc1 | RARα (Homo sapiens, UniProt P10276) | 0.1
Cc1ccc(C2=CC(C)(C)Oc3ccc(-c4ccc(-c5ccc(C(=O)O)c(O)c5)[nH]4)cc32)cc1 | RARα (Homo sapiens, UniProt P10276) | 0.094
COc1cc2c(cc1-c1ccc(-c3ccc(C(=O)O)cc3)[nH]1)C(c1ccc(C)cc1)=CC(C)(C)O2 | RARα (Homo sapiens, UniProt P10276) | 2
Cc1ccc(C2=CC(C)(C)Oc3ccc(-c4ccc(-c5ccc(C(=O)O)c(C)c5)[nH]4)cc32)cc1 | RARα (Homo sapiens, UniProt P10276) | 0.087
Cc1ccc(C2=CC(C)(C)Oc3ccc(-c4ccc(-c5cc(F)c(C(=O)O)c(F)c5)[nH]4)cc32)cc1 | RARα (Homo sapiens, UniProt P10276) | 0.47
CC1(C)C=C(c2ccccc2)c2cc(-c3ccc(-c4ccc(C(=O)O)cc4)[nH]3)ccc2O1 | RARα (Homo sapiens, UniProt P10276) | 0.015
